# credit: ChEMBL document CHEMBL1156758

experiment: Inhibition of Beta-lactamase AmpC by quantitative high throughput screening
propertyLabel: pIC50
Scale for pIC50: -log10 of concentration given in mol/L; no unit attached.

Worked set:
- molecule: "Cc1cc(NC(=O)c2cc(CC(C)C)on2)no1"
  propertyLabel: "pIC50"
  measured: 5.40
- molecule: "O=C(Nc1nc(-c2cccs2)cs1)c1ccc(S(=O)(=O)N2CCCC2)cc1"
  propertyLabel: "pIC50"
  measured: 4.89
- molecule: "O=[N+]([O-])c1ccccc1S(=O)(=O)NC[C@H]1CC[C@H](CNCC2CCc3ccccc3C2)CC1 (stereo partly specified)"
  propertyLabel: "pIC50"
  measured: 4.89
- molecule: "NC(=O)SCC(=O)Nc1cccc(Cl)c1"
  propertyLabel: "pIC50"
  measured: 5.10
- molecule: "O=C(CSCc1ccc(Cl)cc1)c1ccco1"
  propertyLabel: "pIC50"
  measured: 5.00
- molecule: "O=C(c1ccccc1)c1cn(CC(=O)N2CCCC2)c2ccccc12"
  propertyLabel: "pIC50"
  measured: 5.40

Shifting focus to the molecule that follows.
Consider the molecule O=C(CSc1nnc(-c2ccccc2)o1)N1CCN(c2ccccc2)CC1 . State its measured pIC50. 4.89
